# measurementTarget: hSERT (Homo sapiens)
# Construct: expressed in transfected cells; host or cells: HEK-293 cells (crude membranes)
# protocolSummary: SERT radioligand binding assay
# Method: NK-1 Binding assay. Crude membrane suspensions were prepared for the NK1 and SERT radioligand binding assays from U373 cells or recombinant HEK-293 cells expressing hSERT, respectively. […] The medium is removed from the flasks and the cells rinsed with HBSS without Ca and without Mg. […] SERT radioligand binding assay. […] The plates are air-dried overnight, 12 ul/well of MicroScint scintillation fluid added, and the plates counted in a Trilux. […]
measuredMetric: IC50

Req: What value of IC50 has been recorded for this entry: CN1CCC(COCc2cc(C(F)(F)F)cc(-c3ccc(C#N)cc3)n2)(c2ccc(C#N)cc2)CC1
Resp: 0.01 to 100 nM

Req: Entry under review: CC(OCC1(c2ccc(F)cc2)CCN(C)CC1)c1cc(C(F)(F)F)cc(Br)n1 (stereo not shown) . Reported IC50?
Resp: 0.01 to 100 nM

Req: Item under review: CN1CCC(COCc2cc(C(F)(F)F)cc(-c3ccc(C#N)cc3)n2)(c2ccccc2F)CC1 . Reported IC50?
Resp: 100 to 300 nM

Req: Requested read-out: IC50. Entry: CN1CCC(COCc2cc(C(F)(F)F)cc(-c3ccc(C#N)cc3)n2)(c2cccc(F)c2)CC1
Resp: 0.01 to 100 nM

Req: Data request, read-out IC50, for CN1CCC(COCc2cc(C(F)(F)F)cc(-c3ccc(C#N)cc3)n2)(c2ccccc2)CC1
Resp: 0.01 to 100 nM

Req: What value of measured IC50 is listed for CN1CCC(COCc2cc(-c3ccc(C#N)cc3)nc(-c3ccc(C#N)cc3)c2)(c2ccccc2)CC1 ?
Resp: 100 to 300 nM

Req: I have this compound here, CN1CCC(COCc2cc(C(F)(F)F)cc(-c3ccc(F)cc3)n2)(c2ccccc2)CC1 , and I need its recorded IC50.
Resp: 0.01 to 100 nM

Req: Quick one: IC50 for Cc1ccc(-c2cc(C(F)(F)F)cc(COCC3(c4ccccc4)CCN(C)CC3)n2)cc1 ?
Resp: 0.01 to 100 nM

Req: Give its IC50 value. Item: CN1CCC(COCc2cc(C(F)(F)F)cc(Cl)n2)(c2cccnc2)CC1
Resp: 0.01 to 100 nM

Req: If you can, please state the reported IC50 value of CN1CCC(COCc2cc(C(F)(F)F)cc(N3CC[C@@H](F)C3)n2)(c2ccc(F)cc2)CC1 .
Resp: 0.01 to 100 nM

Req: Given the compound CN1CCC(COCc2cc(C(F)(F)F)cc(-c3ncon3)n2)(c2ccc(F)cc2)CC1 , what is its reported IC50?
Resp: 0.01 to 100 nM

Req: IC50 for C[C@H]1CCCN1c1cc(C(F)(F)F)cc(COCC2(c3ccc(F)cc3)CCN(C)CC2)n1 ?
Resp: 0.01 to 100 nM

Req: Which IC50 reading was recorded for the compound CN1CCC(COCc2cc(C(F)(F)F)cc(-c3cccn3C(=O)OC(C)(C)C)n2)(c2ccc(F)cc2)CC1 ?
Resp: 100 to 300 nM

----------
# measurementTarget: hSERT (Homo sapiens, UniProt P31645)
# Construct: expressed in transfected cells; host or cells: HEK-293 cells (crude membranes)
# Sequence (P31645 whole entry): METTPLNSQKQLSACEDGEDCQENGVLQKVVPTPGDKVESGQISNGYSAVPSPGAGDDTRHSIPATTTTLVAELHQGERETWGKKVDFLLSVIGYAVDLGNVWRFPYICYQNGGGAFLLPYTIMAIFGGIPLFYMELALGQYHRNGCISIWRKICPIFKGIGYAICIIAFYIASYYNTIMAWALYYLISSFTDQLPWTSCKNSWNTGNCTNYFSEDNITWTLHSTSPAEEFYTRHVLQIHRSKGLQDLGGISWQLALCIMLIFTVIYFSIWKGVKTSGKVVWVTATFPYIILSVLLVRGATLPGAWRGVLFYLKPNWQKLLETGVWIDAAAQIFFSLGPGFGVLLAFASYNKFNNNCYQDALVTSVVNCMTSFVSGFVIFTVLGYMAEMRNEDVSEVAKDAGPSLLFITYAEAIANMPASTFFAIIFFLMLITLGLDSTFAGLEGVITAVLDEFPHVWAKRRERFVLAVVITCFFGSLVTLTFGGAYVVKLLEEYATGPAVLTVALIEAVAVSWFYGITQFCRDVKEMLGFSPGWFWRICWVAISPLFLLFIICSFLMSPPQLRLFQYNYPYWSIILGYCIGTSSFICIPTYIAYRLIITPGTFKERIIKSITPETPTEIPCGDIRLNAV
# protocolSummary: SERT radioligand binding assay
# measurementContext: HEK-hSERT membrane preparation, [125I]RTI-55; read-out: SERT IC50
Exercise: for every item that follows, state its recorded IC50.

Req: Return reported IC50; argument: Fc1ccc(C2(COCc3cc(C(F)(F)F)cc(N4CC=CC4)n3)CCNCC2)cc1
Resp: 0.01 to 100 nM

Req: Given the compound CCC(CC)Nc1cc(C(F)(F)F)cc(COCC2(c3ccc(F)cc3)CCNCC2)n1 , what is its reported IC50?
Resp: 0.01 to 100 nM

Req: Bench note: what IC50 did FC(F)(F)c1cc(COCC2(c3ccccc3)CCNCC2)nc(N2CCOCC2)c1 show?
Resp: 100 to 300 nM

Req: Which IC50 is reported for this compound? CC(OCC1(c2ccccc2)CCNCC1)c1cc(C(F)(F)F)cc(C#N)n1 (centres unmarked)
Resp: 0.01 to 100 nM

Req: Look at this compound and give its reported IC50. CC(OCC1(c2ccccc2)CCN(C)CC1)c1cc(C(F)(F)F)cc(-c2ccc(F)cc2)n1 (centres unmarked)
Resp: 0.01 to 100 nM

Req: Look at this compound and give its reported IC50. N#Cc1ccc(-c2cc(C(F)(F)F)cc(COCC3(c4ccccc4)CCNCC3)n2)cc1
Resp: 0.01 to 100 nM

Req: Look up IC50: COc1cc(OC)nc(COCC2(c3ccccc3)CCNCC2)n1
Resp: 100 to 300 nM

Req: What IC50 value was documented for this compound, CC(OCC1(c2ccccc2)CCNCC1)c1cc(C(F)(F)F)cc(N2CCOCC2)n1 (centres unmarked) ?
Resp: 0.01 to 100 nM
